For each entry below, report its CC50 at 3 days value.
Assay: Cytotoxicity in HepDES19 cells, MTS assay
Conditions: human, HepDES19 cells (HepG2-derived hepatoblastoma cell line)

Record CC(=O)c1c(C)cc(O)c(=O)c(O)c1-c1ccccc1 , field CC50 at 3 days: 56.2 µM

Record CC(=O)c1c(C)cc(O)c(=O)c(O)c1Br , field CC50 at 3 days: 49.5 µM

Record C/C(=N\c1ccc(C(F)(F)F)cc1)c1c(C)cc(=O)n(O)c1O , field CC50 at 3 days: 91 µM

Record CCCCCCSc1cccc(O)c(=O)c1O , field CC50 at 3 days: 21.5 µM

Record CC(=O)c1c(C)cc(O)c(=O)c(O)c1-c1cccc2ccccc12 , field CC50 at 3 days: 36.6 µM

Record Cc1ccc(Sc2cccc(O)c(=O)c2O)cc1 , field CC50 at 3 days: 18.6 µM

Record C/C(=N\c1cccc(Oc2ccccc2)c1)c1c(C)cc(=O)n(O)c1O , field CC50 at 3 days: 71.3 µM

Record CC(=O)c1c(C)cc(O)c(=O)c(O)c1Cl , field CC50 at 3 days: 31 µM

Record CSc1cccc(O)c(=O)c1O , field CC50 at 3 days: > 100 µM

Record C/C(=N\c1ccccc1Cl)c1c(C)cc(O)n(O)c1=O , field CC50 at 3 days: 76.8 µM

====

Molecular target: human ribonuclease H1 (Homo sapiens, UniProt O60930)
Construct: made in house; host or cells: E. coli
Sequence (O60930 whole entry): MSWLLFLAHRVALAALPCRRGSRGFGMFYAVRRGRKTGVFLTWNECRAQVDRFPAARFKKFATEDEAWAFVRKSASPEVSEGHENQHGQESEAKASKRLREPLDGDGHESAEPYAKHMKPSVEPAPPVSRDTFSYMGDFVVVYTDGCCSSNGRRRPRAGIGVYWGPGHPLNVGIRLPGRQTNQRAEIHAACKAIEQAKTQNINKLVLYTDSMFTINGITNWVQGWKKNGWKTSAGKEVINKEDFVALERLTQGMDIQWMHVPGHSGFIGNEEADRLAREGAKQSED
Experiment: biochemical
Format: biochemical
assay endpoint: IC50 (µM)
Could you give me the number in µM? Just the number is fine.

Record CC(=O)c1c(C)cc(O)c(=O)c(O)c1Cl , field IC50: 115

Record O=C1C=CC(=O)c2ccccc21 , field IC50: 47

Record Cc1cc(O)c(=O)c(O)cc1C(=O)N1CCCCC1 , field IC50: 106

Record COC(=O)c1c(C)cc(O)c(=O)c(O)c1Br , field IC50: 111

Record Cc1cc(O)c(=O)c(O)cc1C(=O)NCc1ccc(-c2ccccc2)cc1 , field IC50: 105

Record CC(=O)c1c(C)cc(O)c(=O)c(O)c1-c1cccc2ccccc12 , field IC50: 448

Record C/C(=N\c1ccccc1Cl)c1c(C)cc(O)n(O)c1=O , field IC50: 165

Record Cc1cc(O)c(=O)c(O)cc1-c1ccccc1 , field IC50: 174

====

System: HepDES19
Assay: Cytotoxicity in HepDES19 cells, MTS assay
Conditions: read-out: CC50 HepDES19; HepDES19 cells, 3 days, MTS; * marks limit value
For each entry below, report its log10 CC50 value.
// units: µM (pre-log); metric: CC50; scale: log10

Record O=C(Cc1ccccc1)Sc1cccccc1=O , field log10 CC50: 1.98

Record CCc1cccc(N=C(C)c2c(C)cc(=O)n(O)c2O)c1 , field log10 CC50: 1.96

Record CC(C)Sc1ccc(SC(C)C)c(O)c(=O)c1O , field log10 CC50: 1.15

Record Cc1cc(O)c(=O)c(O)cc1C(=O)c1cccc(Br)c1 , field log10 CC50: 1.29

Record Cc1ccc(/C=C/C(=O)c2ccccc(=O)c2O)cc1 , field log10 CC50: 1.27

Record CCCCSc1ccc(SCCCC)c(O)c(=O)c1O , field log10 CC50: 0.26

Record C/C(=N\c1ccc(Cl)c(Cl)c1)c1c(C)cc(O)n(O)c1=O , field log10 CC50: 1.84

Record CC[C@H](C)[C@H](NC(=O)OCC1c2ccccc2-c2ccccc21)C(=O)Sc1cccccc1=O , field log10 CC50: 1.63

Record Cc1cc(O)c(=O)c(O)cc1C(=O)NC(CCC(=O)OC(C)(C)C)C(=O)OC(C)(C)C (centres unmarked) , field log10 CC50: 0.72

Record Cc1cc(O)c(=O)c(O)c(O)c1C(=O)c1ccc(-c2ccccc2)cc1 , field log10 CC50: 0.73

Record Cc1cc(O)c(=O)c(O)cc1C(=O)N1CCN(C(c2ccc(F)cc2)c2ccc(F)cc2)CC1 , field log10 CC50: 0.59
